system: Candida albicans; assay: Antifungal activity against Candida albicans ATCC 62376; assay type: functional; settings: Candida albicans, ATCC 62376; read-out: MIC
Starred links: 1 amine or outer side, 2 acyl side, 3 side chain; linkers in the order of their positions; H or OH if unused. Positions of bridges follow the written chain, without caps; N, C: chain ends. Non-standard residues stand in square brackets, D forms with d. Residues, ends and D or L forms follow the SMILES beside them. *: point of attachment. pTerphenylCO(4''-OnC5H11) = CCCCCOc1ccc(-c2ccc(-c3ccc(C(=O)*)cc3)cc2)cc1; Pro(cis-4-guanidino) = NC(N)=N[C@@H]1CN[C@H](C(=O)O)C1; hTyr(3-COCH2NH2) = NCC(=O)c1cc(CC[C@H](N)C(=O)O)ccc1O; X7 = CCCCCCCCOc1ccc(-c2ccc(-c3ccc(C(=O)*)cc3)cc2)cc1; X5 = CCCCCCCCN1CCN(c2ccc(-c3ccc(C(=O)*)cc3)cc2)CC1; X4 = NCCC(=O)c1cc(CC[C@H](N[*:1])C(=O)[*:2])ccc1O; X6 = NCC(=O)[C@H]1C[C@@H](C(=O)[*:2])N([*:1])C1; Pro(4S-NH2) = N[C@@H]1CN[C@H](C(=O)O)C1; Hyp = O=C(O)[C@@H]1C[C@@H](O)CN1; Orn = NCCC[C@H](N)C(=O)O
Attribute Measured: MIC (µg/mL)
// units = µg/mL; emit number, no label

Worked examples, 4 compounds total:
CCCCCOc1ccc(-c2ccc(-c3ccc(C(=O)N[C@H]4CCCNC(=O)[C@@H]5C[C@H](N=C(N)N)CN5C(=O)[C@H]([C@@H](C)O)NC(=O)[C@H](CCc5ccc(O)c(C(=O)CN)c5)NC(=O)[C@@H]5CCCN5C(=O)[C@H]([C@@H](C)O)NC4=O)cc3)cc2)cc1 ({pTerphenylCO(4''-OnC5H11)}-[Orn]TP[hTyr(3-COCH2NH2)]T[Pro(cis-4-guanidino)]; lactam 1-C)	0.2
CCCCCCCCN1CCN(c2ccc(-c3ccc(C(=O)N[C@H]4CCCNC(=O)[C@@H]5C[C@H](C(=O)CN)CN5C(=O)[C@H]([C@@H](C)O)NC(=O)[C@H](CCc5ccc(O)c(C(=O)CN)c5)NC(=O)[C@@H]5CCCN5C(=O)[C@H]([C@@H](C)O)NC4=O)cc3)cc2)CC1 (X5-[Orn]TP[hTyr(3-COCH2NH2)]T[X6]; lactam 1-C)	0.39
CCCCCOc1ccc(-c2ccc(-c3ccc(C(=O)N[C@H]4CCCNC(=O)[C@@H]5C[C@H](N=C(N)N)CN5C(=O)[C@H]([C@@H](C)O)NC(=O)[C@H](CCc5ccc(O)c(C(=O)CCN)c5)NC(=O)[C@@H]5C[C@@H](O)CN5C(=O)[C@H]([C@@H](C)O)NC4=O)cc3)cc2)cc1 ({pTerphenylCO(4''-OnC5H11)}-[Orn]T[Hyp][X4]T[Pro(cis-4-guanidino)]; lactam 1-C)	0.2
CCCCCCCCOc1ccc(-c2ccc(-c3ccc(C(=O)N[C@H]4CCCNC(=O)[C@@H]5C[C@H](N)CN5C(=O)[C@H]([C@@H](C)O)NC(=O)[C@H](CCc5ccc(O)c(C(=O)CN)c5)NC(=O)[C@@H]5CCCN5C(=O)[C@H]([C@@H](C)O)NC4=O)cc3)cc2)cc1 (X7-[Orn]TP[hTyr(3-COCH2NH2)]T[Pro(4S-NH2)]; lactam 1-C)	0.78

Shift focus to the following entry.
Data point: CCCCCOc1ccc(-c2ccc(-c3ccc(C(=O)N[C@H]4CCCNC(=O)[C@@H]5C[C@H](N)CN5C(=O)[C@H]([C@@H](C)O)NC(=O)[C@H](CCc5ccc(O)c(C(=O)CN)c5)NC(=O)[C@@H]5C[C@@H](O)CN5C(=O)[C@H]([C@@H](C)O)NC4=O)cc3)cc2)cc1 ({pTerphenylCO(4''-OnC5H11)}-[Orn]T[Hyp][hTyr(3-COCH2NH2)]T[Pro(4S-NH2)]; lactam 1-C) ; MIC = 0.1

====

test: Volume of distribution was measured in rat after an iv dose of 1 mg/kg; format: ADME, organism-based; set-up: dose 1 mg/kg, route intravenous; settings: in vivo, read-out: Vv
Starred links: 1 amine or outer side, 2 acyl side, 3 side chain; linkers in the order of their positions; H or OH if unused. Positions of bridges follow the written chain, without caps; N, C: chain ends. Non-standard residues stand in square brackets, D forms with d. Residues, ends and D or L forms follow the SMILES beside them. *: point of attachment. pTerphenylCO(4''-OnC5H11) = CCCCCOc1ccc(-c2ccc(-c3ccc(C(=O)*)cc3)cc2)cc1; X1 = NCC(=O)Nc1cc(CC[C@H](N[*:1])C(=O)[*:2])ccc1O; X2 = NC(N)=N[C@H]1CC(C(=O)[*:2])N([*:1])C1; Hyp = O=C(O)[C@@H]1C[C@@H](O)CN1; Orn = NCCC[C@H](N)C(=O)O
Attribute Measured: Vd (L/kg)
// units = L/kg; emit number, no label

Data point: CCCCCOc1ccc(-c2ccc(-c3ccc(C(=O)N[C@H]4CCCNC(=O)C5C[C@H](N=C(N)N)CN5C(=O)[C@H]([C@@H](C)O)NC(=O)[C@H](CCc5ccc(O)c(NC(=O)CN)c5)NC(=O)[C@@H]5C[C@@H](O)CN5C(=O)[C@H]([C@@H](C)O)NC4=O)cc3)cc2)cc1 (stereo partly specified) ({pTerphenylCO(4''-OnC5H11)}-[Orn]T[Hyp][X1]T[X2]; lactam 1-C) ; Vd = 0.6

====

assay: Terminal phase volume of distribution was measured in dog after an iv dose of 1 mg/kg; assay type: ADME, organism-based, Canis lupus familiaris; design: dose 1 mg/kg, route intravenous; conditions: in vivo, read-out: Va beta
Starred links: 1 amine or outer side, 2 acyl side, 3 side chain; linkers in the order of their positions; H or OH if unused. Positions of bridges follow the written chain, without caps; N, C: chain ends. Non-standard residues stand in square brackets, D forms with d. Residues, ends and D or L forms follow the SMILES beside them. *: point of attachment. pTerphenylCO(4''-OnC5H11) = CCCCCOc1ccc(-c2ccc(-c3ccc(C(=O)*)cc3)cc2)cc1; X1 = NCC(=O)Nc1cc(CC[C@H](N[*:1])C(=O)[*:2])ccc1O; X2 = NC(N)=N[C@H]1CC(C(=O)[*:2])N([*:1])C1; Hyp = O=C(O)[C@@H]1C[C@@H](O)CN1; Orn = NCCC[C@H](N)C(=O)O
Attribute Measured: Vd (L/kg)
// units = L/kg; emit number, no label

Data point: CCCCCOc1ccc(-c2ccc(-c3ccc(C(=O)N[C@H]4CCCNC(=O)C5C[C@H](N=C(N)N)CN5C(=O)[C@H]([C@@H](C)O)NC(=O)[C@H](CCc5ccc(O)c(NC(=O)CN)c5)NC(=O)[C@@H]5C[C@@H](O)CN5C(=O)[C@H]([C@@H](C)O)NC4=O)cc3)cc2)cc1 (stereo partly specified) ({pTerphenylCO(4''-OnC5H11)}-[Orn]T[Hyp][X1]T[X2]; lactam 1-C) ; Vd = 1.3

====

experiment: Volume of distribution was measured in monkey after an iv dose of 1 mg/kg; type: ADME, organism-based; design: dose 1 mg/kg, route intravenous; conditions: cercopithecidae, in vivo, read-out: Vv
Starred links: 1 amine or outer side, 2 acyl side, 3 side chain; linkers in the order of their positions; H or OH if unused. Positions of bridges follow the written chain, without caps; N, C: chain ends. Non-standard residues stand in square brackets, D forms with d. Residues, ends and D or L forms follow the SMILES beside them. *: point of attachment. pTerphenylCO(4''-OnC5H11) = CCCCCOc1ccc(-c2ccc(-c3ccc(C(=O)*)cc3)cc2)cc1; X1 = NCC(=O)Nc1cc(CC[C@H](N[*:1])C(=O)[*:2])ccc1O; X2 = NC(N)=N[C@H]1CC(C(=O)[*:2])N([*:1])C1; Hyp = O=C(O)[C@@H]1C[C@@H](O)CN1; Orn = NCCC[C@H](N)C(=O)O
Attribute Measured: Vd

Data point: CCCCCOc1ccc(-c2ccc(-c3ccc(C(=O)N[C@H]4CCCNC(=O)C5C[C@H](N=C(N)N)CN5C(=O)[C@H]([C@@H](C)O)NC(=O)[C@H](CCc5ccc(O)c(NC(=O)CN)c5)NC(=O)[C@@H]5C[C@@H](O)CN5C(=O)[C@H]([C@@H](C)O)NC4=O)cc3)cc2)cc1 (stereo partly specified) ({pTerphenylCO(4''-OnC5H11)}-[Orn]T[Hyp][X1]T[X2]; lactam 1-C) ; Vd = 0.2 L/kg

====

assay: Terminal phase volume of distribution was measured in mouse after an iv dose of 1 mg/kg; format: ADME, organism-based; design: dose 1 mg/kg, route intravenous; details: in vivo, read-out: Va beta
Starred links: 1 amine or outer side, 2 acyl side, 3 side chain; linkers in the order of their positions; H or OH if unused. Positions of bridges follow the written chain, without caps; N, C: chain ends. Non-standard residues stand in square brackets, D forms with d. Residues, ends and D or L forms follow the SMILES beside them. *: point of attachment. pTerphenylCO(4''-OnC5H11) = CCCCCOc1ccc(-c2ccc(-c3ccc(C(=O)*)cc3)cc2)cc1; X1 = NCC(=O)Nc1cc(CC[C@H](N[*:1])C(=O)[*:2])ccc1O; X2 = NC(N)=N[C@H]1CC(C(=O)[*:2])N([*:1])C1; Hyp = O=C(O)[C@@H]1C[C@@H](O)CN1; Orn = NCCC[C@H](N)C(=O)O
Attribute Measured: Vd (L/kg)
// units = L/kg; emit number, no label

Data point: CCCCCOc1ccc(-c2ccc(-c3ccc(C(=O)N[C@H]4CCCNC(=O)C5C[C@H](N=C(N)N)CN5C(=O)[C@H]([C@@H](C)O)NC(=O)[C@H](CCc5ccc(O)c(NC(=O)CN)c5)NC(=O)[C@@H]5C[C@@H](O)CN5C(=O)[C@H]([C@@H](C)O)NC4=O)cc3)cc2)cc1 (stereo partly specified) ({pTerphenylCO(4''-OnC5H11)}-[Orn]T[Hyp][X1]T[X2]; lactam 1-C) ; Vd = 1
